# MEASUREMENT_PROTOCOL: drug combination growth inhibition, ovarian cancer – cell-based, oncology-focused library, rucaparib conditional, profiling panel (AID 1508598)
# REPORTED_CONDITIONS: patient-derived ovarian cancer cells, CellTiter-Glo viability, 144 h; at 0.0781 µM; OCI-C5x cells; with rucaparib 10 µM; stronger effect = lower value; 100% = cells with rucaparib alone
EXPERIMENTAL_READOUT: viability (%)
Use % as the unit, but write only the number.

Completed entries (count: 6):
{"COMPOUND": "COc1ccc(C2=N[C@@H](c3ccc(Cl)cc3)[C@H](c3ccc(Cl)cc3)N2C(=O)N2CCNC(=O)C2)c(OC(C)C)c1", "ASSAY_VALUE": 113}
{"COMPOUND": "O=C(/C=C/c1ccc2ccccc2n1)c1ccncc1", "ASSAY_VALUE": 119}
{"COMPOUND": "CCC1=CC2CN(C1)Cc1c([nH]c3ccccc13)[C@@](C(=O)OC)(c1cc3c(cc1OC)N(C)[C@H]1[C@@](O)(C(=O)OC)[C@H](OC(C)=O)[C@]4(CC)C=CCN5CC[C@@]31[C@H]54)C2 (stereo partly drawn)", "ASSAY_VALUE": 40.3}
{"COMPOUND": "Nc1nonc1C(=Nc1ccc(F)c(Cl)c1)NO", "ASSAY_VALUE": 116}
{"COMPOUND": "COc1cccc2c1C(=O)c1c(O)c3c(c(O)c1C2=O)C[C@@](O)(C(=O)CO)C[C@H]3O[C@H]1C[C@H](N)[C@@H](O)[C@H](C)O1", "ASSAY_VALUE": 103}
{"COMPOUND": "CC(=O)OCC(=O)[C@]1(O)[C@H](C)C[C@H]2[C@@H]3CCC4=CC(=O)C=C[C@]4(C)[C@]3(F)[C@H](O)C[C@@]21C", "ASSAY_VALUE": 118}

Query (compound): N[C@@H]1CCCN(c2c(/C=C3\SC(=O)NC3=O)cccc2-c2ccccc2)C1 ; field requested: viability
108

Please answer likewise for CC1(C)O[C@@H]2C[C@H]3[C@@H]4CCC5=CC(=O)C=C[C@]5(C)[C@]4(F)[C@H](O)C[C@]3(C)[C@@]2(C(=O)CO)O1
108

Please answer likewise for OCCn1cc(-c2ccc3c(c2)CCC3=NO)c(-c2ccncc2)n1
115

Please answer likewise for C=CCNC1=C2C[C@@H](C)C[C@H](OC)[C@H](O)[C@@H](C)/C=C(\C)[C@H](OC(N)=O)[C@@H](OC)/C=C\C=C(\C)C(=O)NC(=CC1=O)C2=O
133

Please answer likewise for O=C(NCC1(c2nc(-c3ccccc3)cs2)CCOCC1)c1cccc(-c2noc(C(F)(F)F)n2)c1
109

Please answer likewise for CC#C[C@@]1(O)CC[C@H]2[C@@H]3CCC4=CC(=O)CCC4=C3[C@H](c3ccc(N(C)C)cc3)C[C@@]21C
122

Please answer likewise for COc1cc([C@H]2c3cc4c(cc3[C@@H](O[C@@H]3O[C@@H]5CO[C@@H](C)O[C@H]5[C@H](O)[C@@H]3O)[C@H]3COC(=O)[C@H]23)OCO4)cc(OC)c1O
106

Data provenance: PubChem BioAssay
